Test system: biotinyl-Trp-oxazolone
TEST_PROTOCOL: self-aminoacylation, catalytic enhancement (BWO) (fold over background); higher = more active; k-Seq, kA / k0A0; sequences stand for … in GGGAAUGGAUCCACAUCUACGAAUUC…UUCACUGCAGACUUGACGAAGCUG
Fewer inactive variants are shown than the library holds.
Provide the reported self-aminoacylation of each item.
Numbers only.

# annotated cases, reported self-aminoacylation shown
CAACACUUAAAGCAAUCGGUC [Fam1B.1 aminoacylation ribozyme variant]	0.79
UCACACUUCAAGCUAUCGGUC [Fam1B.1 aminoacylation ribozyme variant]	0.724
CUACUUCUAACAAUCCGUCUG [Fam1A.1 aminoacylation ribozyme variant]	0.586
ACGGUUGCUAAUAGUCGCAAG [Fam3.1 aminoacylation ribozyme variant]	1.38
AUUACCCUGGUCACCCAGUGA [Fam2.1 aminoacylation ribozyme variant]	8.27
AUUACCCUGGUCAUCGCAUGA [Fam2.1 aminoacylation ribozyme variant]	3.77

Can you give me self-aminoacylation for all of these, one by one?
1. AUUCACCUAGGCCGUCGGGUG [Fam2.2 aminoacylation ribozyme variant]
2. CUACUUAAAACAAUCGGUUUG [Fam1A.1 aminoacylation ribozyme variant]
3. CUACAUCAAACAAUCCGUCUG [Fam1A.1 aminoacylation ribozyme variant]
4. AUUCACCUAGGGCAUCGCGUG [Fam2.2 aminoacylation ribozyme variant]
5. AUUCCCCUAGGUCAUCGGGUG [Fam2.2 aminoacylation ribozyme variant]
6. CGACACUUCAAGCAAUCGGUA [Fam1B.1 aminoacylation ribozyme variant]
7. AUGACCGUGGUCAUCGAGUGA [Fam2.1 aminoacylation ribozyme variant]

2.11
0.596
0.615
2.95
23.2
2.9
7.37

// each sequence listed below needs its self-aminoacylation
1. AUUACCGUGGGCAUCGAGUGA [Fam2.1 aminoacylation ribozyme variant]
2. AUUACCCUGGUCAUCAUGUGA [Fam2.1 aminoacylation ribozyme variant]
3. CUACUUCACACAAUCUGUCUG [Fam1A.1 aminoacylation ribozyme variant]
4. AAGUUUGCUAAUAGUCGGAAU [Fam3.1 aminoacylation ribozyme variant]
5. AACUUUGCUAAUUGUCGCAAG [Fam3.1 aminoacylation ribozyme variant]
6. AAGUUUGCUUAUAGUCUCAAG [Fam3.1 aminoacylation ribozyme variant]
7. GUACUUCAAUCAAUCGGUCUG [Fam1A.1 aminoacylation ribozyme variant]

5.68
6.97
0.513
1.18
4.3
0.69
19.4

State the recorded self-aminoacylation for every item in the following list.
1. AUUACCCUGGUCAGCGUGUGA [Fam2.1 aminoacylation ribozyme variant]
2. AUCUCCCUGGUCAUCGAGUGA [Fam2.1 aminoacylation ribozyme variant]

[6.56, 10.2]

From: the supplement of paper PMC9233669
